The values you see were collected from patent US10028961B2.

Record form. Attribute: IC50. Fill in for each entry.
Experimental System: IDH2 R140Q (Homo sapiens (Human), UniProt P48735, R140Q)
Sequence (P48735 40-452 R140Q): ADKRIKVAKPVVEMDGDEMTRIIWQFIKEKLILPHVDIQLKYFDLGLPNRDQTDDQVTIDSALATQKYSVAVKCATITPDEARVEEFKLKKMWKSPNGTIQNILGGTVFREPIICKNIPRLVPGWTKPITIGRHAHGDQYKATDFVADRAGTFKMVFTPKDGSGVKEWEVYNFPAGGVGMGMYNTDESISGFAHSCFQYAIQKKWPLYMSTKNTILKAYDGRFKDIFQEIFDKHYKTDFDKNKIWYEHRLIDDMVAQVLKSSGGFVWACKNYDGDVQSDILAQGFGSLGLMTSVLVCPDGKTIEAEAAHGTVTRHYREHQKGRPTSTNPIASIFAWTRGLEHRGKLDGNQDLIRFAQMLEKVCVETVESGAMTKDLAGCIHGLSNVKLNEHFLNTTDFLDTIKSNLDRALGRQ
Test Method Notes: In vitro assay for IDH2m R140Q inhibitors, cofactor depletion assay, 16 hr preincubation with NADPH/NADP
Assay type: biochemical
Assay Setup: read-out: IDH2 R140Q 16 hr NADPH/NADP IC50; 16 hrs preincubation with enzyme, 5 uM NADPH and 750 uM NADP

1) CC(C)(C)OC(=O)N1CCC(Nc2nc(NC3CCC(F)(F)CC3)nc(-c3cccc(C(F)(F)F)n3)n2)CC1 :: 100 to 1000 nM
2) FC1(F)CCC(Nc2nc(NC3CCOCC3)nc(-c3cccc(C(F)(F)F)n3)n2)CC1 :: 100 to 1000 nM
3) C[C@@H](Nc1nc(NCC(C)(C)C#N)nc(-c2cccc(C(F)(F)F)n2)n1)C1CC1 :: 100 to 1000 nM
4) FC1(F)CC2(CC(Nc3nc(NC4CC5(C4)CC(F)(F)C5)nc(-c4cccc(Cl)n4)n3)C2)C1 :: 100 to 1000 nM
5) CC(CC#N)Nc1nc(NC(C)CC#N)nc(-c2cccc(Cl)n2)n1 (stereo not shown) :: 100 to 1000 nM
6) CC(CC#N)Nc1nc(Nc2ccnc(C(C)(F)F)c2)nc(-c2cccc(C(F)(F)F)n2)n1 (stereo not shown) :: 50 to 100 nM
7) CC(C)(C)Nc1nc(Nc2ccnc(C(C)(F)F)c2)nc(-c2nccc(C(F)(F)F)n2)n1 :: 50 to 100 nM
8) CC(COC(C)C)Nc1nc(N[C@H](C)C2CC2)nc(-c2cccc(C(F)(F)F)n2)n1 (stereo partly shown) :: 50 to 100 nM
9) C[C@@H](Nc1cc(NC2CCC(F)(F)CC2)nc(-c2cccc(Cl)n2)n1)C(F)(F)F :: < 50 nM
10) CC(C)(C)Nc1nc(Nc2cccc(C#N)c2)nc(-c2cccc(C(F)(F)F)n2)n1 :: < 50 nM

Dear reader, for each entry below, please note its IC50.
1. C[C@@H](Nc1nc(N[C@H](C)C2CC2)nc(-c2nccc(C(F)(F)F)n2)n1)C1CC1
2. FC1(F)CCC(Nc2nc(NC3CCC(F)(F)C3)nc(-c3cccc(Cl)n3)n2)C1 (stereo not shown)

OUT:
1: 50 to 100 nM; 2: < 50 nM

Dear reader, for each entry below, please note its IC50.
1. FC1(F)CCC(Nc2nc(Nc3ccnc(C(F)(F)F)c3)nc(-c3cccc(C(F)(F)F)n3)n2)C1 (stereo not shown)
2. CS(=O)(=O)N1CCC(Nc2nc(NC3CCC(F)(F)CC3)nc(-c3cccc(C(F)(F)F)n3)n2)CC1

OUT:
< 50 nM
100 to 1000 nM

Dear reader, for each entry below, please note its IC50.
1. C[C@@H](Nc1nc(NC2C3CC4CC(C3)CC2C4)nc(-c2cccc(C(F)(F)F)n2)n1)C1CC1 (stereo partly shown)
2. CCC(Nc1nc(NC(CC)C2CC2)nc(-c2cccc(Cl)n2)n1)C1CC1 (stereo not shown)

OUT:
1: 100 to 1000 nM; 2: < 50 nM

----------
Experimental System: IDH1-R132C homodimer enzyme (Homo sapiens (Human), UniProt O75874, R132C)
Sequence (O75874 whole entry R132C): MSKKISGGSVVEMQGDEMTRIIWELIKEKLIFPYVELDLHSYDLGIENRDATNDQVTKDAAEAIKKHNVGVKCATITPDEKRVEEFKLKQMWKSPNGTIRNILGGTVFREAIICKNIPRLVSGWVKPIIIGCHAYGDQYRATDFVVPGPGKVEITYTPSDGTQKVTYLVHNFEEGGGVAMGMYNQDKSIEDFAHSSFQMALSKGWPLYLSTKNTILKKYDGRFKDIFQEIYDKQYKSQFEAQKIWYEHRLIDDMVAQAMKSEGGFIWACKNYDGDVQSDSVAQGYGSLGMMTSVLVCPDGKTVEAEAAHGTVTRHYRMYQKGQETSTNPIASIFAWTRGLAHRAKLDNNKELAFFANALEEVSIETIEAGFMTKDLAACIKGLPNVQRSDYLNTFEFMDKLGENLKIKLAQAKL
Test Method Notes: In vitro assay IDH1-R132C homodimer, NADPH depletion assay with NADPH/NADP preincubation
Type: biochemical
Assay Setup: 5 uM NADPH and 28.75 uM NADP, read-out: IDH R132C NADPH/NADP IC50
pIC50: −log10 of the molar value.
Record form. Attribute: pIC50. Fill in for each entry.

Consider the following illustrative entries.
1. Fc1cc(F)cc(Nc2nc(NC3CC(F)(F)C3)nc(-n3ccc(C(F)(F)F)n3)n2)c1 [Compound 106] :: > 7.30
2. FC1(F)CC[C@H](Nc2nc(Nc3ccnc(C(F)(F)F)c3)nc(-n3ccc(C(F)(F)F)n3)n2)C1 [Compound 393] :: 6.00 to 7.00
3. N#CC1(c2cc(Nc3nc(N[C@@H]4CCC(F)(F)C4)nc(-n4ccc(C(F)(F)F)n4)n3)ccn2)CC1 [Compound 350] :: 7.00 to 7.30
4. FC1(F)CC[C@H](Nc2nc(Nc3ccnc(C(F)(F)F)c3)nc(-c3cccc(C(F)(F)F)n3)n2)C1 [Compound 158] :: 6.00 to 7.00
5. N#CC1(c2cc(Nc3nc(NC4CC(F)(F)C4)nc(-c4cncc(C(F)(F)F)n4)n3)ccn2)CC1 [Compound 401] :: 6.00 to 7.00

Dear reader, for each entry below, please note its pIC50.
1. FC1(F)CCC(Nc2nc(NC3CCC(F)(F)CC3)nc(-c3cncc(C(F)(F)F)n3)n2)CC1 [Compound 160]
2. N#CC1(c2cc(Nc3nc(N[C@H]4CCC(F)(F)C4)nc(-c4cccc(C(F)(F)F)n4)n3)ccn2)CC1 [Compound 133]
3. N#CC1(c2cc(Nc3nc(N[C@@H]4CCC(F)(F)C4)nc(-c4cccc(C(F)(F)F)n4)n3)ccn2)CC1 [Compound 137]
4. FC1(F)CC[C@@H](Nc2nc(N[C@@H]3CCC(F)(F)C3)nc(-c3cncc(C(F)(F)F)n3)n2)C1 [Compound 410]
5. N#CC1(c2cc(Nc3nc(NC4CC(F)(F)C4)nc(-c4cccc(C(F)(F)F)n4)n3)ccn2)CC1 [Compound 168]
6. FC1(F)CCC(Nc2nc(Nc3ccnc(C(F)(F)F)c3)nc(-c3cncc(C(F)(F)F)n3)n2)CC1 [Compound 389]

OUT:
6.00 to 7.00
6.00 to 7.00
6.00 to 7.00
> 7.30
7.00 to 7.30
6.00 to 7.00

Dear reader, for each entry below, please note its pIC50.
1. N#CC1(c2cc(Nc3nc(N[C@H]4CCC(F)(F)C4)nc(-n4ccc(C(F)(F)F)n4)n3)ccn2)CC1 [Compound 174]
2. N#CC1(c2cc(Nc3nc(NC4CCC(F)(F)CC4)nc(-c4cccc(C(F)(F)F)n4)n3)ccn2)CC1 [Compound 189]

OUT:
7.00 to 7.30
6.00 to 7.00

----------
Record form. Attribute: pIC50. Fill in for each entry.
Experimental System: IDH1 R132C (Homo sapiens (Human), UniProt O75874, R132C)
Sequence (O75874 whole entry R132C): as the sequence (O75874 whole entry R132C) above
Test Method Notes: In vitro assay IDH1 R132C homodimer, NADPH depletion assay
pIC50: −log10 of the molar value.

Consider the following illustrative entries.
1) C[C@@H](Nc1nc(N[C@H]2CCC[C@H]2O)nc(-c2cccc(C(F)(F)F)n2)n1)C1CC1 :: < 6.00
2) CC(Nc1nc(N[C@H](C)C2CC2)nc(-c2cccc(C(F)(F)F)n2)n1)c1ccccc1 (single isomer, unassigned) :: 7.00 to 7.30
3) COc1ccc(F)c(-c2nc(N[C@H](C)C3CC3)nc(N[C@H](C)C3CC3)n2)c1 :: < 6.00
4) C[C@@H](Nc1nc(N[C@H](C)C2CC2)nc(-c2cccc(C(F)(F)F)n2)n1)c1ccccc1 :: 6.00 to 7.00
5) C[C@@H](Nc1nc(N[C@H](C)C2CC2)nc(-c2cccc(C(F)(F)F)n2)n1)C1CC1 :: > 7.30

Dear reader, for each entry below, please note its pIC50.
1. C[C@@H](Nc1nc(N[C@H](C)C2CCC2)nc(-c2cccc(C(F)(F)F)n2)n1)C1CCC1
2. CC(O)CNc1nc(NCC(C)O)nc(-c2cccc(C(F)(F)F)n2)n1 (stereo not shown)

OUT:
1. 7.00 to 7.30
2. < 6.00

----------
Experimental System: IDH1 wt/IDH1 R132C heterodimer (Homo sapiens (Human), UniProt O75874, R132C)
Sequence (O75874 whole entry R132C): as the sequence (O75874 whole entry R132C) above
Sequence (O75874 whole entry, stated change not applied): as the sequence (O75874 whole entry R132C) above, with C132R counted along it
Test Method Notes: In vitro assay for IDH1m R132C inhibitors, IDH1 wt/IDH1 R132C heterodimer, NADPH depletion (diaphorase/resazurin)
Assay Setup: NADPH/NADP
Record form. Attribute: IC50. Fill in for each entry.

1. CC(C#N)Nc1nc(Nc2ccnc(C(C)(F)F)c2)nc(-c2cccc(C(F)(F)F)n2)n1 (stereo not shown) :: 100 to 1000 nM

Dear reader, for each entry below, please note its IC50.
1. Fc1cc(F)cc(Nc2nc(NC3CCC(F)(F)CC3)nc(-c3nc(F)ccc3F)n2)c1
2. FC1(F)CCC(Nc2nc(NC3CCOC3)nc(-c3cccc(C(F)(F)F)n3)n2)C1 (stereo not shown)
3. Clc1cccc(-c2nc(NC(C3CC3)C3CC3)nc(NC(C3CC3)C3CC3)n2)n1
4. Cc1cc(-c2nc(NC3CC(F)(F)C3)nc(NC3CC(F)(F)C3)n2)no1
5. Fc1ccc([C@H]2C[C@@H](Nc3nc(NC4CCC(F)(F)C4)nc(-c4cccc(C(F)(F)F)n4)n3)C2)cc1 (stereo partly shown)

OUT:
1: 50 to 100 nM; 2: < 50 nM; 3: < 50 nM; 4: ≥ 1000 nM; 5: < 50 nM
